molecular target: T1, Siglec-7-ECD (human, UniProt Q9Y286 19-353); assay: monovalent Fab; bio-layer interferometry (ForteBio) per Methods
T1 construct: also called p75; AIRM
T1 sequence (Q9Y286 19-353 limits assumed): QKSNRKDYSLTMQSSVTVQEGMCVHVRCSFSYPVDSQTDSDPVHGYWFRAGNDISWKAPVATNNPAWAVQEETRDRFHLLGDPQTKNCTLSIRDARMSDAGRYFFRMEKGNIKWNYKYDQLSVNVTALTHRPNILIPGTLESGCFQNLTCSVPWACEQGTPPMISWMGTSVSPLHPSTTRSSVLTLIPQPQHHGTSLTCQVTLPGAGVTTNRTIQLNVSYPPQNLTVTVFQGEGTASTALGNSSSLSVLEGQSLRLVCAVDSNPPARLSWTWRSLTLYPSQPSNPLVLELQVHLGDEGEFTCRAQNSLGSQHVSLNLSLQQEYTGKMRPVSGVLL
measured_property: Kd

Reference set, count: 3
humanized 16H11-derived Fab, VH AK417-17 / VL AK439-5 (Fab, V domains shown, Measured as monovalent Fab; also called No. 21) VH: QVQLVQSGAEVKKPGSSVKVSCKASGYDFSNFWMNWVRQAPGQGLEWMGGIYPGDGEINYAQKFQGRVTITADESTSTAYMELSSLRSEDTAVYYCARDDYLRAMDIWGQGTMVTVSS VL: DIQMTQSPSSLSASVGDRVTITCRASQNIHNYLAWYQQKPGKAPKFLLYSAKRLEDGVPSRFSGSGSGTDYTLTISSLQPEDFATYYCQHFWSSPYTFGQGTKLEIK
0.25 to 0.5 nM
humanized 16H11-derived Fab, VH AK465-17 / VL AK448-3 (Fab, V domains shown, Measured as monovalent Fab; also called No. 41) VH: QVQLVQSGAEVKKPGSSVKVSCKASGYDFSNFWMNWVRQAPGQGLEWMGQIYPGDGEIKYAQKFQGRVTITADESTSTAYMELSSLRSEDTAVYYCARDDYLRAMDIWGQGTMVTVSS VL: DIQMTQSPSSLSASVGDRVTITCRASQNIHNYLAWYQQKPGKAPKFLLYSAKRLESGVPSRFSGSGSGTDYTLTISSLQPEDFATYYCQHFWSSPYTFGQGTKLEIK
0.1 to 0.15 nM
humanized 16H11-derived Fab, VH AK446-7 / VL AK418-2 (Fab, V domains shown, Measured as monovalent Fab; also called No. 33; AK446-7/AK418-2) VH: QVQLVQSGAEVKKPGSSVKVSCKASGYDFSNFWMNWVRQAPGQGLEWMGQIYPGDGEIKYNQKFQGRVTITADESTSTAYMELSSLRSEDTAVYYCARDDYLRAMDIWGQGTMVTVSS VL: DIQMTQSPSSLSASVGDRVTITCRASGNIHNYLAWYQQKPGKAPKFLLYSAKRLESGVPSRFSGSGSGTDYTLTISSLQPEDFATYYCQHFWSSPYTFGGGTKVEIK
< 0.075 nM

IN: Give Kd for humanized 16H11-derived Fab, VH AK484-6 / VL AK448-3 (Fab, V domains shown, Measured as monovalent Fab; also called No. 43; VH484-6 and VL448-3) VH: QVQLVQSGAEVKKPGSSVKVSCKASGYDFSNYWMNWVRQAPGQGLEWMGQIYPGDGEIKYNQKFQGRVTITADESTSTAYMELSSLRSEDTAVYYCARDDYLRAMDIWGQGTMVTVSS VL: DIQMTQSPSSLSASVGDRVTITCRASQNIHNYLAWYQQKPGKAPKFLLYSAKRLESGVPSRFSGSGSGTDYTLTISSLQPEDFATYYCQHFWSSPYTFGQGTKLEIK
OUT: < 0.075 nM
